Values from ChEMBL document CHEMBL1201862

- Tested on: SF-539
- Assay Info: NCI tumour cell line growth inhibition, 48 h
Active and inactive are the calls of the source. Cut-off read from the data, not from the text of the source: active = GI50 up to about 1.1 µM and inactive = higher.
Test Readout: GI50

Worked cases, answers included:
Nc1ccccc1NC(=O)c1ccc(CNC(=O)OCc2cccnc2)cc1; 3.76 µM (inactive)
Cc1ccc(C2OC(COCc3ccc(Cl)cc3)C(OCc3ccc(Cl)cc3)C2O)cc1 (stereo not given); 16 µM (inactive)
Cc1ccccc1C(=O)N/N=C/c1ccc(Sc2nccn2C)c([N+](=O)[O-])c1; > 100 µM (inactive)

Provide GI50 values for the following items, in order.
1. O=C1/C(=C/c2ccccc2)CN(C(=O)Oc2ccccc2)C/C1=C\c1ccccc1
2. OC12c3ccccc3C1CCCCCCCCCC21OCCO1 (stereo not given)
3. N#Cc1c(N)sc2c1-c1ccccc1OC2
4. O=c1c(O)c(-c2ccc(O)c(O)c2)oc2cc(O)ccc12
5. CCCCCCCCCCCCCCCCOCC(Cl)CP(=O)(O)OP(=O)(O)OCC1OC(n2cnc3c(N)ncnc32)C(O)C1O (stereo not given)
6. Cc1cc(=O)n(-c2c(C)cccc2Cl)c(/C=C(\O)c2ccncc2)n1
7. O=C(CC/C(CC(=O)c1ccc(Cl)cc1)=N\O)Nc1cccc(Cl)c1

1: 5.36 µM (inactive); 2: > 100 µM (inactive); 3: 46.6 µM (inactive); 4: 12 µM (inactive); 5: > 100 µM (inactive); 6: > 100 µM (inactive); 7: > 100 µM (inactive)
